# TARGET: Calcium-dependent protein kinase 1 (Plasmodium falciparum (isolate 3D7)) (UniProt P62344)
# Sequence (P62344 whole entry, looked up): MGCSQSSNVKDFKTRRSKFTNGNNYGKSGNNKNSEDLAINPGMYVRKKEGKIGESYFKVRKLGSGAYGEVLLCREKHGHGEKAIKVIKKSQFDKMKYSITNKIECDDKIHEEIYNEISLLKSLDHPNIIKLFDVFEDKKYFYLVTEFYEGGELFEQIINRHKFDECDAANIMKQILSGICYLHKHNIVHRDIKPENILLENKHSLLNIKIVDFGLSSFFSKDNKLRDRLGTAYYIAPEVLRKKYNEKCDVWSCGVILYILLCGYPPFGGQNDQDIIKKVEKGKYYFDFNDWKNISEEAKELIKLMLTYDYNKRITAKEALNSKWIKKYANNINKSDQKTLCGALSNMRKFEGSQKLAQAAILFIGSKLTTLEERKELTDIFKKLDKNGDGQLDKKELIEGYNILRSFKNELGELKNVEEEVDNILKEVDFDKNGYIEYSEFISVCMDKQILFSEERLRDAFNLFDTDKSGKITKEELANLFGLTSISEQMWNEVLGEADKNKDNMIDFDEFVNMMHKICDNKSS
# METHOD_SUMMARY: PfCDPK1 kinase inhibitors, biochemical, TCAMS library (AID 1159585);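 further: inhibitors leave more ATP so luminescence rises with inhibition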
# STATED_CONDITIONS: recombinant PfCDPK1, Kinase-Glo ATP depletion luminescence
Results with a measured potency or affinity are listed apart. Activity calls are given as the source filed them. Cut-off not given; nearly all actives show IC50 up to about 0.98 µM.
QUANTITY: outcome

INSERT INTO assay_data (molecule, target, result) VALUES
  ('COc1cc2nc(-c3ccc(Br)cc3)cc(N)c2cc1OC', 'Calcium-dependent protein kinase 1 (Plasmodium falciparum (isolate 3D7)) (UniProt P62344)', 'inactive'),
  ('COc1ccc2nccc(N3CCCN(CCNS(=O)(=O)c4ccc5c(c4)NC(=O)CS5)CC3)c2n1', 'Calcium-dependent protein kinase 1 (Plasmodium falciparum (isolate 3D7)) (UniProt P62344)', 'inactive'),
  ('CC1=C(C(=O)Nc2ccccc2)C(c2ccc([N+](=O)[O-])cc2)n2ncc(C(=O)Nc3ccccc3)c2N1 (centres undefined)', 'Calcium-dependent protein kinase 1 (Plasmodium falciparum (isolate 3D7)) (UniProt P62344)', 'inactive'),
  ('CCNc1cc(C(=O)N[C@@H](Cc2ccccc2)[C@H](O)CNC2C3CC4CC(C3)CC2C4)cc(N2CCCCS2(=O)=O)c1 (some centres undefined)', 'Calcium-dependent protein kinase 1 (Plasmodium falciparum (isolate 3D7)) (UniProt P62344)', 'inactive'),
  ('Cc1cc(-c2nc3ccc(C(=O)NCc4ccccc4)cc3n2C2CCN(C(=O)c3ccc(-c4ccccc4)cc3)CC2)ccn1', 'Calcium-dependent protein kinase 1 (Plasmodium falciparum (isolate 3D7)) (UniProt P62344)', 'inactive'),
  ('O=C(Nc1cccc(CN2CCN(C(=O)c3cccc(F)c3)CC2)c1)c1ccco1', 'Calcium-dependent protein kinase 1 (Plasmodium falciparum (isolate 3D7)) (UniProt P62344)', 'inactive'),
  ('Cc1cc(NC(=O)Nc2ccc(Oc3ccccc3)cc2)c2ccccc2n1', 'Calcium-dependent protein kinase 1 (Plasmodium falciparum (isolate 3D7)) (UniProt P62344)', 'inactive'),
  ('O=C(Nc1cccc(C(F)(F)F)c1)Nc1cc(F)c(F)cc1Cl', 'Calcium-dependent protein kinase 1 (Plasmodium falciparum (isolate 3D7)) (UniProt P62344)', 'inactive'),
  ('COC(=O)C1=CNC=C(C(=O)OC)C1c1ccc(Cl)c([N+](=O)[O-])c1', 'Calcium-dependent protein kinase 1 (Plasmodium falciparum (isolate 3D7)) (UniProt P62344)', 'inactive'),
  ('COc1ccccc1C1CCN(C2CCC(NC(=O)c3cc4ccccc4[nH]3)CC2)CC1 (centres undefined)', 'Calcium-dependent protein kinase 1 (Plasmodium falciparum (isolate 3D7)) (UniProt P62344)', 'inactive'),
  ('CC(C)CCN1CCCN(Cc2cccc(NC(=O)c3cc4ccccc4s3)c2)CC1', 'Calcium-dependent protein kinase 1 (Plasmodium falciparum (isolate 3D7)) (UniProt P62344)', 'inactive'),
  ('O=S(=O)(Nc1ccc(CCN2CCCCC2CCN2CCCC2)cc1)c1ccc(-c2ccccc2)cc1 (centres undefined)', 'Calcium-dependent protein kinase 1 (Plasmodium falciparum (isolate 3D7)) (UniProt P62344)', 'inactive'),
  ('c1cc(Nc2nc(-c3ccc(-c4csc(Nc5ccncc5)n4)cc3)cs2)ccn1', 'Calcium-dependent protein kinase 1 (Plasmodium falciparum (isolate 3D7)) (UniProt P62344)', 'inactive'),
  ('CC[C@H](NC(=O)c1c(CCCN2CCN(c3ccccc3)CC2)c(-c2ccccc2)nc2cc(O)ccc12)c1ccccc1', 'Calcium-dependent protein kinase 1 (Plasmodium falciparum (isolate 3D7)) (UniProt P62344)', 'inactive'),
  ('COCCN1CCC(CNCC(C)(C)c2nc(-c3ccc(Cl)c(O)c3)c(-c3ccncc3)[nH]2)CC1', 'Calcium-dependent protein kinase 1 (Plasmodium falciparum (isolate 3D7)) (UniProt P62344)', 'inactive'),
  ('CCOC(=O)c1ccc(OCc2ccc(-c3ccccc3)cc2)cc1', 'Calcium-dependent protein kinase 1 (Plasmodium falciparum (isolate 3D7)) (UniProt P62344)', 'inactive'),
  ('COc1ccc2c(NN=Cc3ccccc3[N+](=O)[O-])ccnc2c1', 'Calcium-dependent protein kinase 1 (Plasmodium falciparum (isolate 3D7)) (UniProt P62344)', 'inactive'),
  ('CC(C)=CCN1CCC(C(=O)Nc2ccc(-c3nc4ccccc4[nH]3)cc2)CC1', 'Calcium-dependent protein kinase 1 (Plasmodium falciparum (isolate 3D7)) (UniProt P62344)', 'inactive'),
  ('CCCCc1ccc(CCNCCCCCCNCCc2ccc(O)c(O)c2)cc1', 'Calcium-dependent protein kinase 1 (Plasmodium falciparum (isolate 3D7)) (UniProt P62344)', 'inactive');
